Source listed as patent US5856506A.

System: PP1
assay details: Phosphatase activity by [32P] release from phosphorylase-a or phosphohistone (Honkanen method)
Assay type: biochemical
test conditions: 100 μM inhibitor; none = 100
measurement label: PP1 remaining activity, percent of control (%)
Hi! Could you send only the number? It should be in %, unit omitted.

Example compounds with recorded PP1 remaining activity, percent of control:
[[record]]
compound = "CCCCCCN(CCNC(=O)c1nc(-c2ccccc2)oc1-c1ccccc1)C(=O)CCC(NC(=O)CCc1ccccc1)C(=O)O (stereo not drawn)"
tested_target = "PP1"
readout_units = "%"
value_reported = 48

[[record]]
compound = "Cc1oc(-c2ccccc2)nc1C(=O)NCCN(C)C(=O)CCC(NC(=O)C=Cc1ccccc1)C(=O)O (stereo not drawn)"
tested_target = "PP1"
readout_units = "%"
value_reported = 111

[[record]]
compound = "Cc1oc(-c2ccccc2)nc1C(=O)NCCN(C)C(=O)CCC(NC(=O)CCc1ccccc1)C(=O)O (stereo not drawn)"
tested_target = "PP1"
readout_units = "%"
value_reported = 53

[[record]]
compound = "CCCCCCCCCC(=O)NC(CCC(=O)N(C)CCNC(=O)c1nc(-c2ccccc2)oc1C)C(=O)O (stereo not drawn)"
tested_target = "PP1"
readout_units = "%"
value_reported = 121

[[record]]
compound = "CCCCCCCCCC(=O)NC(CCC(=O)N(CCNC(=O)c1nc(-c2ccccc2)oc1-c1ccccc1)Cc1ccccc1)C(=O)O (stereo not drawn)"
tested_target = "PP1"
readout_units = "%"
value_reported = 117

[[record]]
compound = "O=C(C=Cc1ccccc1)NC(CCC(=O)N(CCNC(=O)c1nc(-c2ccccc2)oc1-c1ccccc1)Cc1ccccc1)C(=O)O (stereo not drawn)"
tested_target = "PP1"
readout_units = "%"
value_reported = 53

[[record]]
compound = "CN(CCNC(=O)c1nc(-c2ccccc2)oc1-c1ccccc1)C(=O)CCC(NC(=O)C=Cc1ccccc1)C(=O)O (stereo not drawn)"
tested_target = "PP1"
readout_units = "%"
value_reported = 65

[[record]]
compound = "CCCCCCN(CCNC(=O)c1nc(-c2ccccc2)oc1-c1ccccc1)C(=O)CCC(NC(=O)C=Cc1ccccc1)C(=O)O (stereo not drawn)"
tested_target = "PP1"
readout_units = "%"
value_reported = 85


Moving on to the next compound.
Entry under test: CN(CCNC(=O)c1nc(-c2ccccc2)oc1-c1ccccc1)C(=O)CCC(NC(=O)CCc1ccccc1)C(=O)O (stereo not drawn) . Its PP1 remaining activity, percent of control was 80
